Recorded inhibition by entry
target: Lethal factor (Bacillus anthracis); assay: Lethal factor protease inhibitors, Bacillus anthracis, multiplex microsphere cleavage assay, validation set (AID 588461); conditions: flow cytometry, at 10 µM, active compounds read high
recorded-endpoint: inhibition (%)

[[record]]
molecule = "CCN(CC)C(=S)SSC(=S)N(CC)CC"
target_entity = "Lethal factor (Bacillus anthracis)"
data_value = -10.6

[[record]]
molecule = "CC1(C)c2ccccc2N2CC(=O)NC21/C=C/c1ccco1 (configuration not stated)"
target_entity = "Lethal factor (Bacillus anthracis)"
data_value = 0.4

[[record]]
molecule = "Cn1c(=O)oc2cc(S(=O)(=O)N3CCc4ccccc4C3)ccc21"
target_entity = "Lethal factor (Bacillus anthracis)"
data_value = -3.5

[[record]]
molecule = "O=c1[nH]c(=O)n(C2CCCO2)cc1F (configuration not stated)"
target_entity = "Lethal factor (Bacillus anthracis)"
data_value = 1.8

[[record]]
molecule = "COc1ccc(NC(=O)CC(c2ccccc2)c2ccco2)cc1 (configuration not stated)"
target_entity = "Lethal factor (Bacillus anthracis)"
data_value = 9.1

[[record]]
molecule = "CCOC(=O)C1(Cc2cccc(Cl)c2)CCCN(C2CCN(C(C)=O)CC2)C1 (configuration not stated)"
target_entity = "Lethal factor (Bacillus anthracis)"
data_value = -5.1

[[record]]
molecule = "O=c1nc2sc3ccccc3n2c(=O)n1-c1ccc(Cl)cc1"
target_entity = "Lethal factor (Bacillus anthracis)"
data_value = -7.9

[[record]]
molecule = "C[C@H](CS)C(=O)N1CCC[C@H]1C(=O)O"
target_entity = "Lethal factor (Bacillus anthracis)"
data_value = -1.8

[[record]]
molecule = "COc1ccccc1Oc1c(C)oc2c(CN3CCN(CCO)CC3)c(O)ccc2c1=O"
target_entity = "Lethal factor (Bacillus anthracis)"
data_value = 1.4

[[record]]
molecule = "CC1(C)CC(O)(CNCc2ccc3c(c2)OCO3)CCO1 (configuration not stated)"
target_entity = "Lethal factor (Bacillus anthracis)"
data_value = 1.2

[[record]]
molecule = "COc1cc2c(cc1NCc1ccc3c(c1)OCO3)oc1ccccc12"
target_entity = "Lethal factor (Bacillus anthracis)"
data_value = -15.7

[[record]]
molecule = "CC1(C)CC(C(CC(=O)N2CCCC2)Cc2ccccc2)CCO1 (configuration not stated)"
target_entity = "Lethal factor (Bacillus anthracis)"
data_value = 3.1


* * *

molecular target: Lethal factor (Bacillus anthracis); test: Lethal factor protease inhibitors, Bacillus anthracis, multiplex microsphere cleavage assay, validation set (AID 588461); details: flow cytometry, at 10 µM, active compounds read high
recorded-endpoint: inhibition (%)

[[record]]
molecule = "CC12CCC3C(CC=C4CC5(CCC43C)OCCO5)C1CCC2=O (stereo not given)"
recorded_endpoint = "inhibition"
data_value = 3.9

[[record]]
molecule = "O=C(O)c1cccnc1Nc1cccc(C(F)(F)F)c1"
recorded_endpoint = "inhibition"
data_value = -3.9

[[record]]
molecule = "Nc1cnn(C2OC(CO)C(O)C2O)c(=O)n1 (stereo not given)"
recorded_endpoint = "inhibition"
data_value = -3.7

[[record]]
molecule = "COCCOC(=O)c1c(C)oc2ccc(OCc3cc(C(=O)OC)oc3C)cc12"
recorded_endpoint = "inhibition"
data_value = 1.6

[[record]]
molecule = "C[C@@]1(CO)[C@H](O)CC[C@@]2(C)[C@H]1CC[C@H]1C[C@@H]3C[C@@]12CC[C@]3(O)CO"
recorded_endpoint = "inhibition"
data_value = -0.5

[[record]]
molecule = "COC(=O)C1=C(C)NC(C)=C(C(=O)OC)C1c1ccccc1[N+](=O)[O-]"
recorded_endpoint = "inhibition"
data_value = 2

[[record]]
molecule = "COc1ccc2oc(=O)c(C(=O)Nc3ccccc3-c3ccccc3)cc2c1"
recorded_endpoint = "inhibition"
data_value = -1.6

[[record]]
molecule = "COCCCN1C(=O)C(=O)/C(=C(/O)c2ccc3c(c2)CC(C)O3)C1c1cccnc1 (stereo not given)"
recorded_endpoint = "inhibition"
data_value = 3.5

[[record]]
molecule = "C=C(C)c1nc2cc(OC)c(OC)cc2c(=O)o1"
recorded_endpoint = "inhibition"
data_value = 0.1

[[record]]
molecule = "COc1ccc(C2NC(=O)c3ccccc3O2)c(OC)c1OC (stereo not given)"
recorded_endpoint = "inhibition"
data_value = 2.9

[[record]]
molecule = "CCOc1ccc(C(=O)Nc2ccc(N3CCN(C(C)=O)CC3)cc2)cc1[N+](=O)[O-]"
recorded_endpoint = "inhibition"
data_value = 0.9

[[record]]
molecule = "COc1cc2c(cc1OC)-c1nnc(C)n1C(C)(C)C2"
recorded_endpoint = "inhibition"
data_value = -2.5

[[record]]
molecule = "COC(=O)c1cc(-c2ccc(OC)c(OC)c2)on1"
recorded_endpoint = "inhibition"
data_value = 0.1

[[record]]
molecule = "CC1(C)C(=O)OC(c2cccs2)C2(CCCCC2)C1=O (stereo not given)"
recorded_endpoint = "inhibition"
data_value = -6.2

[[record]]
molecule = "O=C1ON=C(c2ccc(Cl)cc2)/C1=C/c1ccc(O)cc1"
recorded_endpoint = "inhibition"
data_value = -7.8


* * *

test: modulators of MEP2-GFP levels in yeast, confirmation, S. cerevisiae, flow cytometry GFP, cherry picks (AID 2272);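 note: ratio of well signal to plate DMSO mean so 100% equals DMSO level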; conditions: S. cerevisiae MEP2-GFP strain, 3 h, at 10 µM, active compounds read high
recorded-endpoint: GFP response vs DMSO (%)

[[record]]
molecule = "COc1ccc(N2C(=O)/C(=C/c3ccco3)C(=O)NC2=S)cc1"
unit = "%"
data_value = 100

[[record]]
molecule = "O=C1C(=O)c2ccccc2-c2ccccc21"
unit = "%"
data_value = 117

[[record]]
molecule = "O=C1NC(=O)N(Cc2ccco2)C(=O)/C1=C/c1ccc(-c2cccc([N+](=O)[O-])c2)o1"
unit = "%"
data_value = 94.7

[[record]]
molecule = "CC1(C)OC(c2ccccc2)=C/C(=C/C=C2C(=O)NC(=S)NC2=O)O1"
unit = "%"
data_value = 145

[[record]]
molecule = "CCN(CC)c1ccc(C=C2C(=O)NC(=S)NC2=O)cc1"
unit = "%"
data_value = 95.2

[[record]]
molecule = "Cc1ccc(/C=C2\\C(=O)NC(=O)N(CC3CCCO3)C2=O)s1 (stereo not drawn)"
unit = "%"
data_value = 92

[[record]]
molecule = "O=C(O)c1nn(Cc2ccc(Cl)cc2Cl)c2ccccc12"
unit = "%"
data_value = 100

[[record]]
molecule = "N#CC(C#N)=Cc1ccc(N2CCCC2)cc1"
unit = "%"
data_value = 112

[[record]]
molecule = "CN1C(=O)NC(=O)/C(=C\\C=C\\c2ccccc2[N+](=O)[O-])C1=O"
unit = "%"
data_value = 105

[[record]]
molecule = "Cc1ccc(N2C(=O)NC(=O)/C(=C\\c3cn(CC(=O)O)c4ccccc34)C2=O)cc1"
unit = "%"
data_value = 100

[[record]]
molecule = "CCN(CC)c1ccc(/C=C/[N+](=O)[O-])cc1"
unit = "%"
data_value = 108

[[record]]
molecule = "C[C@]12CC[C@@H](O)C[C@@H]1CC[C@@H]1[C@@H]2CC[C@]2(C)[C@@H](O)CC[C@@H]12"
unit = "%"
data_value = 89.9

[[record]]
molecule = "CN1C(=O)C(=Cc2ccc(Sc3ccccc3)o2)C(=O)N(C)C1=S"
unit = "%"
data_value = 106

[[record]]
molecule = "O=C1NC(=S)N(c2ccccc2)C(=O)/C1=C/c1ccco1"
unit = "%"
data_value = 122

[[record]]
molecule = "O=[N+]([O-])c1ccc(N2CCNCC2)cc1Sc1ccccn1"
unit = "%"
data_value = 97.8

[[record]]
molecule = "Cc1cc(C=C2C(=O)N(C)C(=S)N(C)C2=O)c(C)n1-c1ccncc1"
unit = "%"
data_value = 113

[[record]]
molecule = "Cc1cccn2c(NCC3CCCO3)c(C(C)C)nc12 (stereo not drawn)"
unit = "%"
data_value = 104

[[record]]
molecule = "C[C@]12CCC(=O)C(O)=C1CC[C@@H]1[C@@H]2CC[C@]2(C)C(=O)CC[C@@H]12"
unit = "%"
data_value = 102


* * *

Recorded inhibition by entry
target: Lethal factor (Bacillus anthracis) (UniProt P15917); test: Lethal factor protease inhibitors, Bacillus anthracis, multiplex microsphere cleavage assay, validation set (AID 588461); conditions: flow cytometry, at 10 µM, active compounds read high
recorded-endpoint: inhibition (%)

[[record]]
compound = "CC[C@H](C)C(=O)O[C@H]1C[C@@H](C)C=C2C=C[C@H](C)[C@H](CC[C@@H]3C[C@@H](O)CC(=O)O3)[C@H]21"
target_entity = "Lethal factor (Bacillus anthracis) (UniProt P15917)"
data_value = 10.4

[[record]]
compound = "CC(C)=CCC(C)(C)/C=N/NC(N)=O"
target_entity = "Lethal factor (Bacillus anthracis) (UniProt P15917)"
data_value = 10.3

[[record]]
compound = "Cc1coc2c1c(C)cc1oc(=O)c(Cc3ccccc3)c(C)c12"
target_entity = "Lethal factor (Bacillus anthracis) (UniProt P15917)"
data_value = -4.3

[[record]]
compound = "O=C(CCSc1ccccc1)N1CCCC1"
target_entity = "Lethal factor (Bacillus anthracis) (UniProt P15917)"
data_value = -2.3

[[record]]
compound = "N/C(=N\\OC(=O)CCCOc1ccc(Cl)cc1Cl)c1ccccn1"
target_entity = "Lethal factor (Bacillus anthracis) (UniProt P15917)"
data_value = -0.4

[[record]]
compound = "CCOc1ccc2nc(N/C(N)=N/S(C)(=O)=O)nc(C)c2c1"
target_entity = "Lethal factor (Bacillus anthracis) (UniProt P15917)"
data_value = 2.4

[[record]]
compound = "COc1cc2cc(C)nc(Cc3cccc4ccccc34)c2cc1OC"
target_entity = "Lethal factor (Bacillus anthracis) (UniProt P15917)"
data_value = 3.2

[[record]]
compound = "CC(C)(C)OC(=O)N1CC(O)CC1C(=O)OCC(=O)c1ccc(Cl)cc1 (stereo unspecified)"
target_entity = "Lethal factor (Bacillus anthracis) (UniProt P15917)"
data_value = 0.1

[[record]]
compound = "CCCC(=O)Nc1ncnc2c1ncn2[C@@H]1O[C@@H]2COP(=O)(O)O[C@H]2[C@H]1OC(=O)CCC"
target_entity = "Lethal factor (Bacillus anthracis) (UniProt P15917)"
data_value = -2.7

[[record]]
compound = "CNCCC=C1c2ccccc2CCc2ccccc21"
target_entity = "Lethal factor (Bacillus anthracis) (UniProt P15917)"
data_value = -5.8

[[record]]
compound = "CN(C)CCN(Cc1ccccc1)c1ccccn1"
target_entity = "Lethal factor (Bacillus anthracis) (UniProt P15917)"
data_value = -0.2

